Test system: MOLT-4
method: NCI tumour cell line growth inhibition, 48 h
Activity calls are given as the source filed them. No stated cut-off is given here; in the data, active = GI50 up to about 1.1 µM and inactive = higher.
measure: GI50

[
  {
    "molecule": "NC(=S)c1cccc(C2Nc3ccccc3O2)c1 (stereo not drawn)",
    "assayed.target": "MOLT-4",
    "measure": "GI50",
    "value.measured": "41.7 µM (inactive)"
  },
  {
    "molecule": "Cc1ccc2nc(Cl)c(/C=N/N3C(=O)/C(=C/c4cccc([N+](=O)[O-])c4)N=C3c3ccccc3)cc2c1",
    "assayed.target": "MOLT-4",
    "measure": "GI50",
    "value.measured": "29.2 µM (inactive)"
  },
  {
    "molecule": "CC(C)(Br)C(Br)CC/C(=C/CBr)CBr.CC(C)(Br)C(Br)CC/C(=C\\CBr)CBr (stereo not drawn)",
    "assayed.target": "MOLT-4",
    "measure": "GI50",
    "value.measured": "2.1 µM (inactive)"
  }
]
